Test system: LOC_OS03G04050-cb001;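 further: purified Escherichia coli-expressed rice kinase domain construct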
test.method.notes: thermal shift delta Tm vs DMSO control; higher = stronger stabilization (binding)
condition.details: 12.5 µM; protein concentration 2 µM
reported.endpoint: thermal shift delta Tm (°C)
Answers are plain numbers, in °C.

molecule	recorded.result
CCn1c(-c2nonc2N)nc2c(C#CC(C)(C)O)ncc(OC[C@H]3CCCNC3)c21	0.51

Your task in this section: give thermal shift delta Tm for each listed record.
1. Cc1cc(C(=O)Nc2nc3cccc(Cl)c3n2[C@@H]2CCCCN(C(=O)/C=C/CN(C)C)C2)ccn1 [Nazartinib (EGF816, NVS-816)]
2. CC(C)NC[C@@H](C(=O)N1CCN(c2ncnc3c2[C@H](C)C[C@H]3O)CC1)c1ccc(Cl)cc1
3. Nc1cccc(S(=O)(=O)N2CCCN(S(=O)(=O)c3ccc4c(c3)OCCO4)CC2)c1
4. Cc1cc(O)c2c(c1)C(=O)c1cccc(O)c1C2=O

Reply text:
1: 0.51; 2: 0.65; 3: 0.38; 4: -0.08
